- systemTested: human TLR7 (Homo sapiens)
- Sequence (Q9NYK1 27-1049): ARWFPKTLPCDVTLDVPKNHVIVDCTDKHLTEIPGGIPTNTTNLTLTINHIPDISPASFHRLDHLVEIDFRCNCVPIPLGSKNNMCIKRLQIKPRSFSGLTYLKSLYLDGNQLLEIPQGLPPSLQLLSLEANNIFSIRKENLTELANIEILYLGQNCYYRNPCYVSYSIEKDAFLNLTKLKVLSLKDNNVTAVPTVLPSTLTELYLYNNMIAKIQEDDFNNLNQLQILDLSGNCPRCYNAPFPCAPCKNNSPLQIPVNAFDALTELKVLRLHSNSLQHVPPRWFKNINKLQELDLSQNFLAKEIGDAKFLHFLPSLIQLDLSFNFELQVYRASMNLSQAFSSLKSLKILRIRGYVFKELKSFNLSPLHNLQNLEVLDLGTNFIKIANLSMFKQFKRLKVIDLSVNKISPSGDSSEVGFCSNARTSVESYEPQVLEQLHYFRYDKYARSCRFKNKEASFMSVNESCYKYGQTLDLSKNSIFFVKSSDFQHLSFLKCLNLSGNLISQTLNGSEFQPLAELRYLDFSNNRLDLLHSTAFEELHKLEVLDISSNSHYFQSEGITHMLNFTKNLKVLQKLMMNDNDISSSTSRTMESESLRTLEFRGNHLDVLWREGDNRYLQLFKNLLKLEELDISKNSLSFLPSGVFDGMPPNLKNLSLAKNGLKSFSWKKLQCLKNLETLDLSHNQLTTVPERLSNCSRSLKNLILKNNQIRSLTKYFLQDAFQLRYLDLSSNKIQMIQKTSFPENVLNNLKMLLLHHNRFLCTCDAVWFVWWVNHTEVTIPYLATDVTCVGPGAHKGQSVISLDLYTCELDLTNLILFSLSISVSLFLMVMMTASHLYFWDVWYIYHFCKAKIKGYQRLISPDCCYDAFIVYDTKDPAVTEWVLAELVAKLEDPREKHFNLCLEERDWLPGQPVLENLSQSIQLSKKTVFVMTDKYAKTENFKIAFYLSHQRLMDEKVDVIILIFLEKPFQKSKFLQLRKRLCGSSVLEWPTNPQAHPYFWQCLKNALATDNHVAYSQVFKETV
- assayDetails: TLR7 inhibition reporter assay (HEK-Blue cells, secreted embryonic alkaline phosphatase reporter)
- cond: HEK-Blue cells overexpressing human TLR7, stimulated with gardiquimod 7.5 μM; read-out: TLR 7 IC50
Please respond with yes (1) when measured IC50 is strictly beneath 9 µM, and with no (0) in all other cases.

Request: Lab log: compare recorded IC50 with 9 µM; is it strictly lower for COc1ccc(-c2nc3c(C)cc(C4CC5CCC(C4)N5C4CCN(CC(C)C)CC4)cc3n2C)cc1OC (centres unmarked) ?
Result: yes (1)

Request: Lab log: compare recorded IC50 with 9 µM; is it strictly lower for Cn1c(-c2ccc(S(C)(=O)=O)cc2)nc2c(F)c(C3CCN(C4CC5CCC(C4)N5CC4CC4)CC3)ccc21 (single isomer, unassigned) [Example 191] ?
Result: yes (1)

Request: Lab log: compare recorded IC50 with 9 µM; is it strictly lower for COc1cc(-c2nc3c(C)cc(C4CCN(C5CC6CCC(C5)N6C5CC5)CC4)cc3n2C)cn2ncnc12 (centres unmarked) ?
Result: yes (1)

Request: Lab log: compare recorded IC50 with 9 µM; is it strictly lower for Cn1c(-c2ccc(S(C)(=O)=O)cc2)nc2cc(F)c(C3CCN(C4CC5CCC(C4)N5C4CCOCC4)CC3)cc21 (centres unmarked) [Example 236] ?
Result: no (0)

Request: Lab log: compare recorded IC50 with 9 µM; is it strictly lower for COc1ccc(-c2nc3c(C)cc(C4CCN(C5CC6CCC(C5)N6CC(C)C)CC4)cc3[nH]2)cc1OC (single isomer, unassigned) [Example 19] ?
Result: yes (1)

Request: Lab log: compare recorded IC50 with 9 µM; is it strictly lower for COc1ccc(-c2nc3c(C)cc(C4CCN(C5CC6(C5)CN(CC5CC5)C6)CC4)cc3n2C)cc1OC ?
Result: no (0)

Request: Lab log: compare recorded IC50 with 9 µM; is it strictly lower for COc1cc(-c2nc3c(C)cc(C4CCN(C5CC6CCC(C5)N6C(C)C)CC4)cc3n2C)cn2ncnc12 (centres unmarked) ?
Result: yes (1)

Request: Lab log: compare recorded IC50 with 9 µM; is it strictly lower for Cc1cc(C2CCN(C3CC4CCC(C3)N4C3CCC3)CC2)cc2c1nc(-c1ccc(S(C)(=O)=O)c(F)c1)n2C (single isomer, unassigned) ?
Result: yes (1)

Request: Lab log: compare recorded IC50 with 9 µM; is it strictly lower for CC(C)N1C2CCC1CC(N1CCC(c3ccc4nc(-c5ccc(S(C)(=O)=O)cc5)[nH]c4c3F)CC1)C2 (single isomer, unassigned) [Example 95] ?
Result: no (0)

Request: Lab log: compare recorded IC50 with 9 µM; is it strictly lower for Cc1cc(C2CCN(C3CCN(CC(C)C)CC3)CC2)cc2c1nc(-c1ccc(S(C)(=O)=O)c(F)c1)n2C ?
Result: no (0)

Request: Lab log: compare recorded IC50 with 9 µM; is it strictly lower for COc1ccc(-c2nc3c(C)cc(C4CCN(C5CCN(C6CC6)CC5)CC4)cc3n2C)cc1F ?
Result: no (0)

Request: Lab log: compare recorded IC50 with 9 µM; is it strictly lower for Cc1cc(C2CCN(C3CC4CCC(C3)N4CC(C)C)CC2)cc2[nH]c(-c3ccc(S(C)(=O)=O)cc3)nc12 (centres unmarked) ?
Result: no (0)

Request: Lab log: compare recorded IC50 with 9 µM; is it strictly lower for Cn1c(-c2ccc(S(C)(=O)=O)cc2)nc2cc(C3CCN(C4CCN(CC5COC5)CC4)CC3)cc(F)c21 ?
Result: no (0)

Request: Lab log: compare recorded IC50 with 9 µM; is it strictly lower for COc1ccc(-c2nc3c(C)cc(C4CCN(C5CCN(C6CC6)CC5)CC4)cc3n2C)cc1OC [Example 46, tris(2,2,2-trifluoroacetate)] ?
Result: no (0)

Request: Lab log: compare recorded IC50 with 9 µM; is it strictly lower for Cn1c(-c2ccc(S(C)(=O)=O)cc2)nc2c(F)cc(C3CCN(C4CCN(C5CCOCC5)CC4)CC3)cc21 ?
Result: yes (1)

Request: Lab log: compare recorded IC50 with 9 µM; is it strictly lower for CC(C)N1C2CCC1CC(N1CCC(c3ccc4nc(-c5ccc(S(C)(=O)=O)cc5)n(C)c4c3F)CC1)C2 (single isomer, unassigned) [Example 103] ?
Result: no (0)

Request: Lab log: compare recorded IC50 with 9 µM; is it strictly lower for Cn1c(-c2ccc(S(C)(=O)=O)cc2)nc2c(F)c(C3CCN(C4CCN(C5CCOCC5)CC4)CC3)ccc21 ?
Result: no (0)

Request: Lab log: compare recorded IC50 with 9 µM; is it strictly lower for CS(=O)(=O)c1ccc(-c2nc3ccc(C4CCN(C5CCN(CC6COC6)CC5)CC4)c(F)c3[nH]2)cc1 ?
Result: no (0)

Request: Lab log: compare recorded IC50 with 9 µM; is it strictly lower for Cn1c(-c2ccc(S(C)(=O)=O)cc2)nc2c(F)c(C3CCN(C4CCN(C5CC5)CC4)CC3)ccc21 ?
Result: no (0)

Request: Lab log: compare recorded IC50 with 9 µM; is it strictly lower for CC(C)CN1C2CCC1CC(N1CCC(c3cc4nc(-c5ccc(S(C)(=O)=O)cc5)n(C)c4cc3F)CC1)C2 (centres unmarked) [Example 248] ?
Result: no (0)

Request: Lab log: compare recorded IC50 with 9 µM; is it strictly lower for CS(=O)(=O)c1ccc(-c2nc3c(F)cc(-c4ccc(CN5CCC(N6CCCC6)CC5)cc4)cc3n2C2CC2)cc1 ?
Result: yes (1)

Request: Lab log: compare recorded IC50 with 9 µM; is it strictly lower for Cc1cc(C2CCN(C3CC4CCC(C3)N4C(C)C)CC2)cc2c1nc(-c1ccc(S(C)(=O)=O)cc1)n2C (single isomer, unassigned) [Example 85] ?
Result: yes (1)

Request: Lab log: compare recorded IC50 with 9 µM; is it strictly lower for COCCN1C2CCC1CC(N1CCC(c3ccc4c(nc(-c5ccc(S(C)(=O)=O)cc5)n4C)c3F)CC1)C2 (single isomer, unassigned) [Example 199] ?
Result: no (0)

Request: Lab log: compare recorded IC50 with 9 µM; is it strictly lower for COc1ccc(-c2nc3c(C)cc(C4CCN(C5CC6(C5)CN(CC(C)C)C6)CC4)cc3n2C)cc1OC [Example 47, tris(2,2,2-trifluoroacetate)] ?
Result: yes (1)

Request: Lab log: compare recorded IC50 with 9 µM; is it strictly lower for CN(C)C1CCN(Cc2ccc(-c3ccc4nc(-c5cccc(F)c5)n(C)c4c3)cc2)CC1 ?
Result: yes (1)

Sourced from patent US12492188B2
